The origin of these recorded values is ChEMBL document CHEMBL6103622.

- Study target: Macrophage colony-stimulating factor 1 receptor (Homo sapiens)
- Sequence (P07333 whole entry): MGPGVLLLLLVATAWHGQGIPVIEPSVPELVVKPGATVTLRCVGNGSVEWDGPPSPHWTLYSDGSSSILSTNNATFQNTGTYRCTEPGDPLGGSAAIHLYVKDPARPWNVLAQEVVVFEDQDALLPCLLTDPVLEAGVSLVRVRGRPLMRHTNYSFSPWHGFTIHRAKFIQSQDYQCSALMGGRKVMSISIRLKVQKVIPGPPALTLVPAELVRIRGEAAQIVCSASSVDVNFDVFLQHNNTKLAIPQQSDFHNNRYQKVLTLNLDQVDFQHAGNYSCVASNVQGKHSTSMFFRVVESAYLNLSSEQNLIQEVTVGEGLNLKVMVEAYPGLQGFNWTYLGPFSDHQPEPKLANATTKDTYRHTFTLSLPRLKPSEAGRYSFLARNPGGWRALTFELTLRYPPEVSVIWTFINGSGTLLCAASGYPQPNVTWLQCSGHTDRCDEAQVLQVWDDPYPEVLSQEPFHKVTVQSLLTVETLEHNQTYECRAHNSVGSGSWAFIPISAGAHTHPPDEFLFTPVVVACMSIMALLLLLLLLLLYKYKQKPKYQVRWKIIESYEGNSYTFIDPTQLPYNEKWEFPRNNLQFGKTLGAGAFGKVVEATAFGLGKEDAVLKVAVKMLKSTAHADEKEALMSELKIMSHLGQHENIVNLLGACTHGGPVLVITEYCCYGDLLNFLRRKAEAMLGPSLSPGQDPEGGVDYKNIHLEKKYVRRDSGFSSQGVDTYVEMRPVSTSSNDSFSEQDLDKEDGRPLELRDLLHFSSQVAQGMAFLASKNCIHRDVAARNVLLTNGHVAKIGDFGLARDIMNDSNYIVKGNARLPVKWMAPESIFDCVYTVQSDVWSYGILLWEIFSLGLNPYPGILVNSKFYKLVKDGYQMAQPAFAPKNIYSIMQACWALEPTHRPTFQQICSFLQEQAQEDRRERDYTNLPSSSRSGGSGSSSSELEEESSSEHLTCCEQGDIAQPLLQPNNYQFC
- Assay procedure: Binding affinity to recombinant CSF-1R (unknown origin) assessed as equilibrium dissociation constant by SPR analysis
Measured metric: Kd (nM)
Kindly answer with a numeric value in nM, unit omitted.

[in] Reported Kd, compound Cc1nc(NC(=O)N[C@@H]2CCCC[C@H]2O)ccc1Oc1c[nH]c2ncc(Cl)cc12 : ____
[out] 2.96

---

- Assay procedure: AUC (0 to t) in Sprague-Dawley rat at 10 mg/kg, po
- Type: ADME, organism-based
- Assay conditions: in vivo
Measured metric: AUC(0-t) (ng·h/mL)
Only the number, expressed in ng·h/mL, is required.

[in] Give the measured AUC(0-t) of Cc1nc(NC(=O)N[C@@H]2CCCC[C@H]2O)ccc1Oc1c[nH]c2ncc(Cl)cc12 .
[out] 4170
